Data credit: paper PMC9377253

- System: multidrug-resistant Colo 320 colonic adenocarcinoma cells
- Measurement protocol: MTT antiproliferative assay (72 h), Colo 320
- Format: cell-based, human
- Setup conditions: Homo sapiens, COLO 320, 72 h, MTT, 72 h incubation; read-out: Antiproliferative IC50, Colo320

Molecule	IC50 / µM
COc1cccc2c1C(=O)c1c(O)c3c(c(O)c1C2=O)C[C@@](O)(C(=O)CO)C[C@@H]3O[C@H]1C[C@H](N)[C@H](O)[C@H](C)O1 [Doxorubicin, doxorubicin, reference compound]	0.14
C=C1C(=O)O[C@@H]2[C@H]1CC[C@H](C)[C@H](CCC(=O)OC)[C@@]2(C)O [Compound 7, 1,10-dihydro-1′-noraltamisin]	34.5
COc1c(O)cc2oc(-c3ccc(O)c(O)c3)c(OC)c(=O)c2c1O [Compound 8, axillarin]	50.4
C=C1C(=O)O[C@@H]2[C@H]1CC[C@H](C)[C@]1(CCC(=O)O1)[C@@]2(C)O [Compound 4, psilostachyin]	5.29
CC(=O)O[C@@H]1C[C@H]2[C@@H](C)CC[C@@H]3[C@@H](OC(=O)[C@@H]3C)[C@]2(C)C1=O [Compound 2, acetoxydihydrodamsin]	3.67
C=C1C(=O)O[C@@H]2[C@H]1CC[C@H](C)[C@@H]1CCC(=O)O[C@@]21C [Compound 1, psilostachyin C]	14.7
C=C1C(=O)O[C@@H]2C[C@H](C)[C@]3(O)CCC(=O)[C@@]3(C)C[C@H]12 [Compound 3, peruvin]	21.2
